tested on: MDA-MB-435 melanoma; assay: NCI-60 one-dose screen, 48 h; conditions: 10 µM unless noted
About 83,000 compounds went through this panel and 20% of them were active in at least one assay; those are over-represented in the sample as a whole. Active and inactive are the calls of the source. The calls were made as follows: active = growth percent below 10; inactive = the rest.
Outcomes: Yes for active, No for inactive

>>> label_value("Cc1ccc(/C=C(\\C#N)n2nnc3cc(F)c(F)cc32)cc1")
"Yes"
>>> label_value("Nc1ncnc2c1N=C(c1ccc3c(c1)OCO3)CC(c1cccc(Nc3ccnc4cc(C(F)(F)F)ccc34)c1)N2 (stereo not given)")
"No"
>>> label_value("O=C(Nc1ncc(Cc2cc(C(F)(F)F)ccc2Cl)s1)c1cccs1")
"Yes"
>>> label_value("COc1cccc(NCc2nnc(Nc3ccc(Cl)cc3)c3ccccc23)c1")
"Yes"
>>> label_value("COc1ccc(C(O)c2cc3c(N)c(C(=O)Nc4cccc(Cl)c4C)sc3nc2C)cc1 (stereo not given)")
"Yes"
>>> label_value("Cc1ccc(/C=C/C(=O)c2cccc(OCCCOc3cccc(C(=O)/C=C/c4ccc(C)cc4)c3)c2)cc1")
"No"
>>> label_value("O=S(=O)(Nc1cc(Sc2cccc3cccnc23)c(O)c2ccccc12)c1ccccc1")
"No"
>>> label_value("Cc1nn(-c2cc(NC3CCC(O)CC3)c3c(=O)[nH]c(CCC(F)(F)F)cc3c2)c2c1C(=O)CC(C)(C)C2 (stereo not given)")
"No"
>>> label_value("Nc1ccc(-c2csc(-n3[nH]c(=O)ccc3=O)n2)cc1")
"No"
>>> label_value("COc1cccc(CNc2c3ccccc3nc3ccccc23)c1")
"No"
>>> label_value("Nc1nc(N)c2c(n1)NC(c1cccc(Nc3ccnc4cc(C(F)(F)F)ccc34)c1)CC(c1ccccc1)=N2 (stereo not given)")
"Yes"
>>> label_value("Cc1ccc2nc(NC(=O)CSc3nc(-c4ccccc4)c(C#N)c4nnnn34)sc2c1")
"No"
>>> label_value("CNC(C)[C@H]1CCC2C3CC=C4C(=O)[C@@H](NC(=O)C=C(C)C)CC[C@]4(C)C3CC[C@@]21C (stereo not given in full)")
"Yes"
>>> label_value("Cc1nc2c(=O)nc3s/c(=C\\c4ccco4)c(=O)n3c2nc1C")
"No"
>>> label_value("CCOC(=O)CC1CSC(Nc2ccccc2)=N1 (stereo not given)")
"No"
>>> label_value("CCCn1cnc2c(c1=N)C(c1ccc(F)cc1)c1sc3c(F)cccc3c1O2 (stereo not given)")
"Yes"
>>> label_value("COc1ccc(N2CCN(C(=O)c3sc4nc(C)c(Br)c(C)c4c3N)CC2)cc1")
"No"
>>> label_value("COc1cccc(Nc2ncnc3cc(NC(=O)CCl)ccc23)c1")
"Yes"
>>> label_value("O=C(NNC(=O)c1nc2cc(F)ccc2n2cccc12)c1cnccn1")
"No"
>>> label_value("N#Cc1c(Nc2ccc(N3CCOCC3)cc2)nc(SCC(=O)c2ccc(Br)cc2)nc1-c1ccccc1")
"No"

----------
# Lookup of reported growth keyed by entry
test system: UACC-62 melanoma; assay: NCI-60 one-dose screen, 48 h (100 = growth as untreated, 0 = no growth, -100 = all killed); conditions: 10 µM unless noted
Compounds without any hit were thinned out: in the full panel of roughly 83,000, 20% have a hit.
QUANTITY NAME: growth (%)

>>> reported_measurement("O=C1NC(=O)/C(=C/c2c(-c3ccccc3)nc3sc(COc4ccccc4)nn23)S1")
90
>>> reported_measurement("COc1ccc(C(=O)N2c3ccccc3Sc3ccccc32)c(C(F)(F)F)c1")
31.6
>>> reported_measurement("COc1cccc(C(=O)NNc2nc(Cl)nc(Cl)n2)c1")
101
>>> reported_measurement("CCOC(=O)CC1CSC(Nc2ccccc2)=N1 (configuration not stated)")
99.7
>>> reported_measurement("C=C(C)[C@@H]1CCC[C@]2(C(=O)O)CC[C@]3(C)[C@@H](CC[C@@H]4[C@@]5(C)C/C(=C/c6ccncc6)C(=O)C(C)(C)[C@@H]5CC[C@]43C)[C@@H]12")
26.8
>>> reported_measurement("CC1(C)[C@@H](O[C@@H]2OC[C@@H](O[C@@H]3O[C@H](CO)[C@@H](O)[C@H](O)[C@H]3O[C@@H]3OC[C@@H](O)[C@H](O)[C@H]3O)[C@H](O)[C@H]2O[C@@H]2O[C@H](CO)[C@@H](O)[C@H](O)[C@H]2O)CC[C@]2(C)[C@H]3CC[C@]45OC[C@@]6(CC[C@](C)(C=O)C[C@H]64)[C@H](O)C[C@@]5(C)[C@]3(C)CC[C@@H]12")
-71.8
>>> reported_measurement("CCOC(=O)c1nn(CC(O)c2ccccc2)c(NC(=O)Nc2cccc(F)c2)c1C (configuration not stated)")
80.8
>>> reported_measurement("O=C(O)/C=C/C(=O)Nc1cccc(Cn2nnc3cc(Cl)c(Cl)cc32)c1")
97.6
>>> reported_measurement("O=C1C(Nc2ccccn2)=C(I)C(=O)c2ncccc21")
-68
>>> reported_measurement("Cc1ccc2c(=O)cc(C(=O)Nc3sc4c(c3C(=O)NCc3cccnc3)CCCC4)oc2c1C")
96.6
>>> reported_measurement("Cc1ccc(C=C2C(=O)NC(=O)NC2=O)cc1")
102
>>> reported_measurement("Cc1ccc(/C=C/C(=O)c2cccc(OCCCOc3cccc(C(=O)/C=C/c4ccc(C)cc4)c3)c2)cc1")
62.9
>>> reported_measurement("C=C(CNCCc1ccc(O)cc1)[C@@H]1CC[C@]2(CO)CC[C@]3(C)[C@H](CC[C@@H]4[C@@]5(C)CCC(=O)C(C)(C)[C@@H]5CC[C@]43C)[C@@H]12")
-29.5
>>> reported_measurement("O=C(CN1CCN(c2cc3c(cc2F)c(=O)c(C(=O)O)cn3C2CC2)CC1)N/N=C/c1ccco1")
93.5
>>> reported_measurement("O=C(NCc1cccc(CNC(=O)Nc2nc3ccccc3[nH]2)c1)Nc1nc2ccccc2[nH]1")
-15.9
>>> reported_measurement("Cc1cc2c(cc1C)N(C(=O)CCl)CC(=O)N2")
70.7
>>> reported_measurement("CC(=O)c1ccc(Nc2nccc(-c3ccc4ccccc4c3)n2)cc1")
88

----------
system: M14 melanoma; assay: NCI-60 one-dose screen, 48 h (100 = growth as untreated, 0 = no growth, -100 = all killed); details: 10 µM unless noted
This is part of a sample that, as a whole, favours compounds with a hit. Of some 83,000 tested, about 20% had one in any assay.
# Lookup of reported growth keyed by entry
QUANTITY NAME: growth (%)

>>> reported_measurement("CC(C)N1C(=O)/C(=c2\\sc3n(c2=O)C2C(NN=3)N(C)C(=O)N2C)c2ccccc21 (stereo unspecified)")
44.9
>>> reported_measurement("COc1cccc(NCc2nnc(Nc3ccc(Cl)cc3)c3ccccc23)c1")
-15.7
>>> reported_measurement("Cc1c2cccnc2c(C)c2c1c1cc(CO)ccc1n2C")
29.8
>>> reported_measurement("CCc1ccc(CCC(=O)Nc2ncc(Cc3ccccc3)s2)o1")
10.5
>>> reported_measurement("Cn1cc(-c2nn3cc(-c4cccs4)nc3s2)c2cc(F)ccc21")
6.34
>>> reported_measurement("O=C(Cn1nnc2ccccc21)N/N=C/c1c[nH]c2ccccc12")
19.7

----------
# Lookup of reported growth keyed by entry
tested on: RXF 393 renal; experiment: NCI-60 one-dose screen, 48 h (100 = growth as untreated, 0 = no growth, -100 = all killed); settings: 10 µM unless noted
This is part of a sample that, as a whole, favours compounds with a hit. Of some 83,000 tested, about 20% had one in any assay.
QUANTITY NAME: growth (%)

>>> reported_measurement("C=C1CC[C@@H]2[C@](C)(COC(C)=O)[C@H](OC(C)=O)CC[C@@]2(C)[C@@H]1CC(Nc1ccc(S(=O)(=O)NC(C)=O)cc1)C1=CCOC1=O (some centres not stated)")
-75.8
>>> reported_measurement("CCN(CC)CCCN1C(=O)c2c(c(C)c3c(oc4ccc(O)cc43)c2C)C1=O")
61.3
>>> reported_measurement("COc1ccc(C2=CC(c3cc(OC)c(OC)c(OC)c3)n3ncnc3N2)cc1 (configuration not stated)")
71.1
>>> reported_measurement("CCN1C(=O)N(CC)C2C1NN=c1s/c(=C\\c3ccc[nH]3)c(=O)n12 (configuration not stated)")
-26.6
>>> reported_measurement("Cc1ccc(/C=C(\\C#N)n2nnc3cc(F)c(F)cc32)cc1")
-0.406
>>> reported_measurement("OCCNCCNC(Cc1ccc(Cl)cc1)c1ccccc1 (configuration not stated)")
84.5
>>> reported_measurement("CN(CCCNC(=O)CCOCCOCCOCCNC(=O)Cc1ccc2ccc3cccc4ccc1c2c34)CCCNc1cc(-c2ccc3ccccc3c2)nc2ccccc12")
-37.7
>>> reported_measurement("COc1cc(NC(=O)c2cncnc2Nc2ccc3c(ccn3Cc3ccccn3)c2)cc(OC)c1")
42
>>> reported_measurement("CC[N+]1(CC)CC[N+]2(CCCC(C)CC2)CC1 (configuration not stated)")
113
>>> reported_measurement("Cc1ccc(C(=O)c2ccc(CC(=O)NN3C(=O)c4ccccc4C3=O)n2C)cc1")
102
>>> reported_measurement("COc1ccccc1C(=O)Nc1cccc(NC(=O)c2ccoc2C)c1")
50.1
>>> reported_measurement("Cc1cn(-c2cc(NC(=O)c3cncc(C#Cc4c(N)ncc5ccc(F)cc45)c3)cc(C(F)(F)F)c2)cn1")
62.7
>>> reported_measurement("Cc1nc2c(c(=O)[nH]1)C(c1ccccc1)c1ccc3ccccc3c1O2 (configuration not stated)")
27.6
>>> reported_measurement("CCOC(=O)c1c(C)nc2ccccc2c1/C=C/c1ccccc1")
113
>>> reported_measurement("COc1ccc(-c2nc(/C=C3\\C(=O)N(C)c4ccccc43)c3ccccn23)cc1")
67.4
>>> reported_measurement("O=C(CCCCCCN1CC(=O)N2[C@H](c3ccc(Br)cc3)c3[nH]c4ccccc4c3C[C@@H]2C1=O)NO")
42.4
>>> reported_measurement("Cc1ccc(S(=O)(=O)OCCCOS(=O)(=O)c2ccc(C)cc2)cc1")
107
>>> reported_measurement("CCCn1cnc2c(c1=N)C(c1ccc(F)cc1)c1sc3c(F)cccc3c1O2 (configuration not stated)")
52.2
>>> reported_measurement("CN(C)S(=O)(=O)Oc1ccc(-c2sc3cc(OS(=O)(=O)N(C)C)ccc3c2C(=O)c2ccc(OCCN3CCCCC3)cc2)cc1")
26.8
>>> reported_measurement("Cc1ccc(C(=O)c2ccc(CC(=O)N=Nc3c(O)[nH]c4ccc(Br)cc34)n2C)cc1")
87
>>> reported_measurement("COC(=O)N1CC(Oc2ccccn2)C2CC1c1ccccc1O2 (configuration not stated)")
95.1
>>> reported_measurement("COc1cccc(Nc2ncnc3cc(NC(=O)CCl)ccc23)c1")
-90.2
>>> reported_measurement("C=C1C(=O)O[C@H]2[C@H]1CC/C(COC(=O)NCc1ccc(Cn3c(=O)sn(-c4ccc(C#N)cc4)c3=O)cc1)=C\\CC[C@@]1(C)O[C@@H]21")
52.7
>>> reported_measurement("C=C(c1ccc(OC)c(/C=C/C(=O)c2ccc3c(c2)OCO3)c1)c1cc(OC)c(OC)c(OC)c1")
3.52
>>> reported_measurement("COc1ccc2[nH]cc(-c3nc(-c4c[nH]c5c(Cl)nccc45)cs3)c2c1")
37.7
>>> reported_measurement("O=C(C1=Cc2cc3ccccc3n2Cc2cnnn21)c1ccc(O)cc1")
59
>>> reported_measurement("Cc1ccc(/C=C/C(=O)c2cccc(OCCCOc3cccc(C(=O)/C=C/c4ccc(C)cc4)c3)c2)cc1")
85.7
>>> reported_measurement("CCOC(=O)C#Cc1c(C(=O)OCC)nnn1Cc1ccc(C(F)(F)F)cc1")
-7.11
>>> reported_measurement("CCN1C2CCC1/C(=C\\c1ccc(F)cc1)C(=O)/C2=C/c1ccc(F)cc1")
57.9
>>> reported_measurement("COc1cc(/C=C/C(=O)/C=C(O)/C=C/c2ccc(OC(=O)C34CC5CC(CC(C5)C3)C4)c(OC)c2)ccc1OC(=O)C12CC3CC(CC(C3)C1)C2")
106
>>> reported_measurement("COc1cc(OC)c2sc(-c3ccc(-n4cncc4-c4cc(OC)c(OC)c(OC)c4)cc3)nc2c1")
4.25
>>> reported_measurement("N#C/C(=C\\c1ccc([N+](=O)[O-])cc1)n1nnc2cc(F)c(F)cc21")
-64.7
>>> reported_measurement("C=C1C(=O)O[C@H]2[C@H]1CC/C(COC(=O)/C=C\\C(=O)NCc1ccc(Cn3c(=O)sn(CCCCC)c3=O)cc1)=C\\CC[C@@]1(C)O[C@@H]21")
74.9
>>> reported_measurement("C=CC(=O)Nc1ccc(Nc2nccc(-c3ccc(N4CCCC4)c(C#N)c3)n2)cc1")
-54.5
>>> reported_measurement("COc1cc(OC)c(/C=C/C(=O)c2c(O)cc(OC)c(C3CCN(C)CC3)c2OC)c(OC)c1")
-75.1
>>> reported_measurement("Cn1cc(-c2csc(-c3cn(CCCN4CCOCC4)c4ccccc34)n2)c2cccnc21")
65.7
>>> reported_measurement("C=C1C(=O)O[C@H]2[C@H]1CC/C(Cn1cc(CCC)nn1)=C\\CC[C@@]1(C)O[C@@H]21")
-70.2
